targetOrTestSystem: T1, human AMHRII (anti-Mullerian hormone receptor type 2) (human, UniProt Q16671 18-573)
T1 construct: whole, on cells; also called AMHR2; human AMHR2
T1 sequence (looked up): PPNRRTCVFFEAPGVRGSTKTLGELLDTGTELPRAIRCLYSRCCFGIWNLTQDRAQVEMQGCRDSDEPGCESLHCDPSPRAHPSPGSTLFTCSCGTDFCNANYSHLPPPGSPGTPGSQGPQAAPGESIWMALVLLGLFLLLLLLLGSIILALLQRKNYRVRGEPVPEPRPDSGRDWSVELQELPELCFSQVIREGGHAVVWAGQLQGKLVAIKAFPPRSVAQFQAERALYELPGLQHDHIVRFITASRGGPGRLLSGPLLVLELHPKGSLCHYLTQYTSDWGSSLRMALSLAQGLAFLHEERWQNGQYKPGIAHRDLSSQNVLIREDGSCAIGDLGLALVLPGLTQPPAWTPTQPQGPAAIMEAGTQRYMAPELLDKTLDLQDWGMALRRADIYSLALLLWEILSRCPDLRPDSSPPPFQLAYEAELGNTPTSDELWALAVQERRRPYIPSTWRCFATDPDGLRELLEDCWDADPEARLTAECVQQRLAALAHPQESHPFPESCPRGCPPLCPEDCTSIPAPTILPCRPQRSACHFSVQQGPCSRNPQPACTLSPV
testDetails: FACS on CHO-K1 cells over-expressing human AMHR2
Description: CHO-K1 cells over-expressed AMHR2 were harvested from flasks. 100 μl of 1×10⁶ cells/ml of cells were incubated with the humanized antibodies in 3-fold serial dilutions starting from 300 nM to 0.001 nM for 30 minutes on ice. After being washed with 200 μl of FACS buffer twice, cells were incubated with secondary antibody for 30 minutes on ice. Cells were washed with 200 μl of FACS buffer twice and analyzed by FACS.
observationType: pEC50
Recall that pEC50 is obtained by taking minus log10 of the concentration measured in molar.

Look over these answered cases.
{"columns": ["binder", "pEC50"],
 "data": [
  ["108F3D1E9 H4L4 hIgG1 (antibody, V domains shown, Humanized, human IgG1; also called 108F3D1E9 H4L4 hlgG1) VH: QVQLQESGPGLVKPSETLSLTCTVSGYSITSDFAWNWIRQFPGKGLEWMGYISFSGSTSYNPSLKSRITISRDTSKNQFFLQLSSVTAEDTAVYYCAGSRYSWFAYWGQGTLVTVSS VL: DIVLTQSPSSLSVSVGDRATITCRASESVDTYGNSFMHWYQQKPGQPPKLLIYRASNLESGIPARFSGSGSRTDFTLTISSVQPEDFATYYCQQSNEDPYTFGGGTKLEIK", 9.19],
  ["108F3D1E9 H3L1 hIgG1 (antibody, V domains shown, Humanized, human IgG1; also called 108F3D1E9 H3L1 hlgG1) VH: QVQLQESGPGLVKPSETLSLTCTVSGYSITSDFAWNWIRQFPGKGLEWMGYISFSGSTSYNPSLKSRITISRDTSKNQFSLKLSSVTAADTAVYYCAGSRYSWFAYWGQGTLVTVSS VL: DIQMTQSPSSLSASVGDRVTITCRASESVDTYGNSFMHWYQQKPGKAPKLLIYRASNLESGVPSRFSGSGSGTDFTLTISSLQPEDFATYYCQQSNEDPYTFGGGTKVEIK", 9.13]
]}

Turning now to a further record.
Query :: Read off the recorded pEC50 for 108F3D1E9 H4L3 hIgG1 (antibody, V domains shown, Humanized, human IgG1; also called 108F3D1E9 H4L3 hlgG1) VH: QVQLQESGPGLVKPSETLSLTCTVSGYSITSDFAWNWIRQFPGKGLEWMGYISFSGSTSYNPSLKSRITISRDTSKNQFFLQLSSVTAEDTAVYYCAGSRYSWFAYWGQGTLVTVSS VL: DIVLTQSPSSLSASVGDRVTITCRASESVDTYGNSFMHWYQQKPGQPPKLLIYRASNLESGIPARFSGSGSGTDFTLTISSVQPEDFATYYCQQSNEDPYTFGGGTKVEIK
Result :: 9.13
